- System: T-47D breast
- Assay Comment: NCI tumour cell line growth inhibition, 48 h; in the data active means GI50 below about 0.43 µM; inactive means the rest
Outcome field: choose from active, inactive

{"Compound": "CC[C@H](NC(=O)[C@H]1CCCCN1C)C(=O)N(C)[C@H](C[C@@H](OC(C)=O)c1nc(C(=O)N[C@@H](Cc2ccccc2)C[C@H](C)C(=O)O)cs1)C(C)C", "Group Label": "active"}
{"Compound": "CSc1ccc(-c2ccccc(=O)c2O)cc1", "Group Label": "inactive"}

Any idea what this test logged for CCOC(=O)c1ccc(Nc2sc(C(=O)c3ccc(Br)cc3)c(N)c2C#N)cc1 ?
inactive

Hi, sorry to bother you, what did the test record for Cc1cc(Nc2ccc(OCc3ccccc3)cc2)nc2cc(O)ccc12 ?
inactive

I'd appreciate the recorded outcome for CCCCCCCC/C=C/CCCCCCCC1=NC(C)(C)CN1CC(C)O (centres undefined) from this test.
inactive

Hi, sorry to bother you, what did the test record for O=C1c2[nH]cc(CNC3CN4CCC3CC4)c2C(=O)c2c1c(O)c1ccccc1c2O (centres undefined) ?
inactive

Could you please tell me the result logged for CN1CCC(COc2cnc(-c3cccc(Cn4nc(-c5cccc(C#N)c5)ccc4=O)c3)nc2)CC1 in this assay?
inactive

Which outcome did this test record for the compound C=C(C)[C@@H]1CC[C@]2(COCCC#N)CC[C@]3(C)[C@H](CC[C@@H]4[C@@](C)(CCCNCCC#N)[C@H](C(=C)C)CC[C@]43C)[C@@H]12 ?
inactive

Which outcome was assigned to CC(C)(C)N1CCC1CN (centres undefined) in this test?
inactive

====

- Test system: 786-0 renal
- Assay Comment: NCI tumour cell line growth inhibition, 48 h
For each entry below, report its TGI value.

Past entries and their recorded results:
{"Compound": "Cc1ccc(S(=O)(=O)CN2C(=O)C(c3ccccc3)(c3ccccc3)C23OC(c2ccc(Cl)cc2)=CC3=O)cc1 (stereo not drawn)", "Experimental Result": "> 10 µM"}
{"Compound": "CC(=O)Nc1ccc(NS(=O)(=O)c2ccc3nc(C)n(NS(=O)(=O)c4ccc(NC(C)=O)cc4)c(=O)c3c2)cc1", "Experimental Result": "> 100 µM"}

Now turn to the next compound.
Write down the reported TGI (system: 786-0 renal) of CCCCCCCCCCCCCCCCCCNc1ccn(C2OC(COP(=O)(O)OCC3OC(n4cc(C)c(=O)[nH]c4=O)CC3F)C(O)C2O)c(=O)n1 (stereo not drawn)
9.52 µM

====

- Tested on: NCI-H226 lung
- Assay Comment: NCI tumour cell line growth inhibition, 48 h
Assay Readout: TGI

{"Test Smiles": "Cc1cc([N+](=O)[O-])ccc1Sc1c2ccccc2nc2cc(Cl)ccc12", "Experimental Result": "> 100 µM"}
{"Test Smiles": "CC1=NN(c2nc(N)nc(CBr)n2)C(C)(C)C1", "Experimental Result": "12.2 µM"}

Now let's try a different one.
Supply measured TGI of C#CCNC(=O)N(CC#C)N=O in your reply.
> 100 µM

====

- Test system: HOP-62 NSCLC
- Assay Comment: NCI tumour cell line growth inhibition, 48 h
Would you mind telling me the reported TGI of each entry?

Below, each entry is followed by its recorded TGI result.
{"Molecule": "NC1=CC(=O)c2cccnc2C1=O", "Assay Readout": "TGI", "Experimental Result": "2.77 µM"}
{"Molecule": "CN1C(=O)CCC2[C@@H]3CC=C4C[C@@H](O)CC[C@]4(C)C3CC[C@@]21C (stereo not given in full)", "Assay Readout": "TGI", "Experimental Result": "> 100 µM"}
{"Molecule": "CCOC(=O)C1SC(=Nc2cccc(Cl)c2C)N=C1C (stereo not given)", "Assay Readout": "TGI", "Experimental Result": "> 100 µM"}

Batch lookup, TGI per entry.
1. CC(=O)OCC(OC(C)=O)C(OC(C)=O)C(/C=N\Nc1nc2ccccc2c(=O)[nH]1)=N\Nc1nc2ccccc2c(=O)[nH]1 (stereo not given)
2. COc1ccccc1NC(=O)C1=C(C)NC(C)=C(C(=O)Nc2ccccc2OC)C1C1=CC=COC1

["> 100 µM", "> 100 µM"]
